test system: KMS11 (cancer type: MM); experiment: normalized area under the dose-response curve (viability relative to DMSO control) (fraction); higher = less sensitive (more viable cells); conditions: exposure time not given
measuredQuantity: normalized area under the dose-response curve
Please give only the number in your answer, with no unit.

Challenge: // map O=P1(N(CCCl)CCCl)NCCCO1 (stereo unspecified) [Cyclophosphamide] to recorded normalized area under the dose-response curve (system: KMS11 (cancer type: MM))
Response given: 0.822

Challenge: // map `CC(C)C[C@H](NC(=O)[C@H](CCc1ccccc1)NC(=O)CN1CCOCC1)C(=O)N[C@@H](Cc1ccccc1)C(=O)N[C@@H](CC(C)C)C(=O)[C@@]1(C)CO1` to recorded normalized area under the dose-response curve (system: KMS11 (cancer type: MM))
Response given: 0.128

Challenge: // map Nc1cccc2c1C(=O)N(C1CCC(=O)NC1=O)C2=O (stereo unspecified) [Pomalidomide] to recorded normalized area under the dose-response curve (system: KMS11 (cancer type: MM))
Response given: 0.912

Challenge: // map `CC1(C)CCC(CN2CCN(c3ccc(C(=O)NS(=O)(=O)c4ccc(NCC5CCOCC5)c([N+](=O)[O-])c4)c(Oc4cnc5[nH]ccc5c4)c3)CC2)=C(c2ccc(Cl)cc2)C1` to recorded normalized area under the dose-response curve (system: KMS11 (cancer type: MM))
Response given: 0.591

Challenge: // map `CN(C)C/C=C/C(=O)Nc1cc2c(Nc3ccc(F)c(Cl)c3)ncnc2cc1O[C@H]1CCOC1` to recorded normalized area under the dose-response curve (system: KMS11 (cancer type: MM))
Response given: 0.53

Challenge: // map `CC(=O)c1c(C)c2cnc(Nc3ccc(N4CCNCC4)cn3)nc2n(C2CCCC2)c1=O` to recorded normalized area under the dose-response curve (system: KMS11 (cancer type: MM))
Response given: 0.79

Challenge: // map `CNC(=O)c1cc(Oc2ccc(NC(=O)Nc3ccc(Cl)c(C(F)(F)F)c3)c(F)c2)ccn1` to recorded normalized area under the dose-response curve (system: KMS11 (cancer type: MM))
Response given: 0.546

Challenge: // map `CC(=O)O[C@H]1C(=O)[C@@]2(C)[C@H]([C@H](OC(=O)c3ccccc3)[C@]3(O)C[C@H](OC(=O)[C@H](O)[C@@H](NC(=O)c4ccccc4)c4ccccc4)C(C)=C1C3(C)C)[C@]1(OC(C)=O)CO[C@@H]1C[C@@H]2O` to recorded normalized area under the dose-response curve (system: KMS11 (cancer type: MM))
Response given: 0.853

Challenge: // map `Cc1ccc(F)c(NC(=O)Nc2ccc(-c3cccc4[nH]nc(N)c34)cc2)c1` to recorded normalized area under the dose-response curve (system: KMS11 (cancer type: MM))
Response given: 0.65

Challenge: // map `N#CC[C@H](C1CCCC1)n1cc(-c2ncnc3[nH]ccc23)cn1` to recorded normalized area under the dose-response curve (system: KMS11 (cancer type: MM))
Response given: 0.87

Challenge: // map `C[C@@H]1C[C@H]2[C@@H]3CCC4=CC(=O)C=C[C@]4(C)[C@@]3(F)[C@@H](O)C[C@]2(C)[C@@]1(O)C(=O)CO` to recorded normalized area under the dose-response curve (system: KMS11 (cancer type: MM))
Response given: 0.805
